system: HT29 colon; assay: NCI tumour cell line growth inhibition, 48 h
MEASURED QUANTITY: TGI

Consider the reported TGI for these compounds:
Which TGI reading was recorded for the compound CCCCn1cc(C(=O)O)c(=O)c2c3sccc3ccc21 ?
> 100 µM

What about COc1cc2c3c(n(CCCNCCO)c(=O)c2cc1OC)-c1cc2c(cc1C3=O)OCO2 ?
0.589 µM

Lookup N#Cc1c(N)c(-c2ccc(Cl)cc2)c(F)c2ccccc12
> 100 µM

Repeat for the following compound: CC1OC(=O)N(CCCC=C2SCCCS2)C1=O (stereo unspecified)
> 100 µM

Below is a list of compounds. For each, state its recorded TGI.
1. CCOC(=O)CCC(NC(=O)OCc1ccccc1)C(=O)NNC(=O)OC(C)(C)C (stereo unspecified)
2. Cc1cc(CS(=O)(=O)/C=C/c2ccccc2[N+](=O)[O-])c(CS(=O)(=O)/C=C/c2ccccc2[N+](=O)[O-])cc1C

> 100 µM
> 100 µM

###

Answer each item with its documented TGI.
tested on: SF-268 CNS; assay: NCI tumour cell line growth inhibition, 48 h

Data request, read-out TGI, for COc1cc2c3c(c1OC)-c1ccccc1C(C(OC(C)=O)c1ccccc1)C3N(C)CC2 (stereo not drawn)
> 100 µM

// same read-out, input: C[C@@H](NC(=O)Cc1cc(F)cc(F)c1)C(=O)N[C@@]1(C)N=C(c2ccccc2)c2ccccc2N(C)C1=O
> 100 µM

Subsequent entry: CCCCCCCCCCCCOC1C(COCCN2CCCC2)OC2OC(C)(C)OC21 (stereo not drawn)
4.44 µM

# iterate: CC1OC(=O)N(CCCC=C2SCCCS2)C1=O (stereo not drawn)
> 100 µM

Likewise for O=C1c2cc(Cl)ccc2-n2c(noc2=O)C2CSCN12 (stereo not drawn) ?
> 100 µM

Try the compound Cc1[nH]c(=O)nc(N/N=C/c2ccc(Cl)c(Cl)c2)c1C(=O)Nc1ccc(Cl)c(Cl)c1
40.7 µM

Please give the result for COc1ccccc1C(=O)c1c(N2CCCCC2)c(=O)c1=O too.
> 100 µM

Please answer likewise for O=C(O)c1cc(Cl)cc(NC(=O)C(Cl)Cl)c1Cl
> 100 µM

And Oc1cccc(-c2nc3ccccc3s2)c1 ?
68.7 µM

Please do the same for COc1ccc(C(=O)Cc2cc(OC)ccc2OC)cc1 as well.
> 100 µM

Give me TGI for each of these compounds, listed below.
1. O=C1c2ccccc2-c2ccc(NC(=O)C3CCCCC3C(=O)O)cc21 (stereo not drawn)
2. Clc1ccc2c(Cl)ncnc2c1
3. Cc1ccc(C2=Nc3c(N)ncnc3NC(c3cccc(Nc4ccnc5cc(C(F)(F)F)ccc45)c3)C2)cc1 (stereo not drawn)
4. CCCCc1ccc2[n+](c1)C(C(=O)OCC)=PC2 (stereo not drawn)
5. O=C(c1ccccc1F)c1c(NCc2ccccc2)c(=O)c1=O

1: > 100 µM; 2: > 100 µM; 3: 47.1 µM; 4: > 100 µM; 5: > 100 µM

Please look at the items below and tell me TGI for each one, in order.
1. O=c1oc2ccccc2cc1-c1nc2ccc([N+](=O)[O-])cc2o1
2. CC[C@]12C=CCN3CC[C@]4(C(=C(C(=O)OC)C1)Nc1cc(O)ccc14)[C@@H]32
3. CC(C)=CC(=O)O[C@@H]1CC(C)(C)CC2C3=CCC4[C@]56CC[C@](O)(OC5)C(C)(C)C6CC[C@@]4(C)C3(C)CC[C@]21C(=O)O (stereo partly drawn)
4. CC1CN=C(c2cccc(OCc3ccc(COc4cccc(C5=NCC(C)N5)c4)cc3)c2)N1 (stereo not drawn)
5. CCN(CC)CCC(=O)Nc1ccc(Cn2nnc3c2C(=O)c2nnn(Cc4ccc(NC(=O)CCN(CC)CC)cc4)c2C3=O)cc1
6. COc1cc(C2SCC(=O)N2NC(=O)c2ccc(NC(C)=O)cc2)cc(OC)c1OC (stereo not drawn)
7. COC(=O)C12CC(C3CC31)C1CC12 (stereo not drawn)

> 100 µM
53.2 µM
> 100 µM
> 100 µM
1.51 µM
> 100 µM
> 100 µM

// each listed compound needs a value for TGI
1. O=C(c1cccs1)N(C(=S)N1CCN(c2ccccc2)CC1)c1ccccc1
2. CCOC(=O)/C=C1\Nc2ccccc2C12CCc1c([nH]c3ccccc13)C2C(=O)OCC (stereo not drawn)
3. O=c1[nH]c(=O)n(C2CC(O)C(CO)O2)cc1C#Cc1ccc(C(F)(F)F)cc1 (stereo not drawn)
4. CC1Cc2c(N(C)C)ncnc2N(C)c2ccc(Cl)cc21 (stereo not drawn)

1: > 100 µM; 2: > 100 µM; 3: > 100 µM; 4: > 100 µM

// each listed compound needs a value for TGI
1. COc1cccc(-c2nn(-c3ccccc3)cc2-c2ccnc(NCCNC(=O)Nc3ccc(Cl)c(Cl)c3)c2)c1
2. COc1ccc2cccc(C(=N)c3ccc(C)c4c3CCC4)c2c1

1. 10.3 µM
2. 31.8 µM

###

system: UO-31 renal; test: NCI tumour cell line growth inhibition, 48 h
MEASURED QUANTITY: TGI

Observe how each entry below is paired with its result.
// TGI lookup, key: CCCCCCCCCCCCC(=O)NCC(=O)NC(Cc1ccccc1)C(=O)Oc1ccc([N+](=O)[O-])cc1 (centres undefined)
> 100 µM

Next entry: Cc1cs/c(=N\C(P(=O)(O)O)P(=O)(O)O)n1C
> 100 µM

Repeat for the following compound: COc1ccc(C2=CC(c3cc(OC)c(OC)c(OC)c3)n3ncnc3N2)cc1 (centres undefined)
66.4 µM

// for each compound below, give its TGI
1. COC(=O)/C(C#N)=C1\N=NNN1CCCN1CCOCC1
2. COC(=O)C12CC(C3CC31)C1CC12 (centres undefined)
3. N#CC1c2ccccc2-c2ccccc2N1C(=O)c1ccccc1 (centres undefined)

1. > 100 µM
2. > 100 µM
3. > 59.4 µM

List the reported TGI of each compound below.
1. COc1cc(C2C(Cl)C(=O)N2c2ccc(Br)cc2)cc(I)c1O (centres undefined)
2. O=C1NC(=O)/C(=C\c2ccncc2)N1

["> 100 µM", "> 100 µM"]

Record request: TGI value, item CNc1ccc2nc(-c3ccc(OC(=O)N(C)C)cc3)cn2c1
35.4 µM

###

tested on: MCF7 breast; experiment: NCI tumour cell line growth inhibition, 48 h
MEASURED QUANTITY: TGI

API: value(readout=TGI, system=MCF7 breast) for record COc1cc(C(=O)Nc2nnc(S(N)(=O)=O)s2)cc(OC)c1OC
> 100 µM

Let us now turn to O=C1/C(=C/c2cccc(Oc3ccccc3)c2)N=C(c2ccccc2)N1c1nc2ccc(Sc3ccccc3)cc2[nH]1
> 100 µM

With those in mind, consider the next compound.
Identify the measured TGI of Cc1cccc(NC(=O)CC(=O)N2N=C(N3c4ccccc4Sc4ccccc43)CC2c2ccccc2)c1 (stereo not drawn) for MCF7 breast.
> 100 µM

###

tested on: NCI-H226 lung; test: NCI tumour cell line growth inhibition, 48 h
MEASURED QUANTITY: TGI (µM)
Numbers only, in µM.

// worked examples, TGI included
Please report the recorded TGI for CCCCN(CCCC)C(=NCc1ccccc1)NC#N .
64.8

Would you mind doing Oc1ccc2ccccc2c1-c1nnc(CCCCCCCCc2nnc(-c3c(O)ccc4ccccc34)o2)o1 as well?
29.6

And for Oc1cccc(-c2nc3ccccc3s2)c1 ?
73

Shifting focus to the molecule that follows.
Find the recorded TGI belonging to CC1=NNC(N)=N/C1=C/C(Sc1ccc(Cl)cc1)c1cccs1 (stereo unspecified) and report it.
32.6

###

tested on: ACHN renal; experiment: NCI tumour cell line growth inhibition, 48 h
MEASURED QUANTITY: TGI

I am curious: what TGI value has been reported for O=c1c(Cc2ccc(Cl)cc2)nnc2sc(-c3ccc([N+](=O)[O-])cc3)nn12 ?
87.3 µM

# batch: return TGI for each of the 3 molecules below
1. O=c1[nH]c(=O)n(C2CC(O)C(CO)O2)cc1C#Cc1ccc(C(F)(F)F)cc1 (stereo not given)
2. CC(CC(=O)O)(CC(=O)O)C(=O)O
3. Cc1ccc(Nc2nc(=O)[nH]c(=O)[nH]2)cc1N

> 100 µM
> 100 µM
> 100 µM

Quick request: TGI for each listed item, please.
1. O=C1/C(=C/c2cccc(Oc3ccccc3)c2)N=C(c2ccccc2)N1c1nc2ccc(Sc3ccccc3)cc2[nH]1
2. Cc1nnc([S-])s1.[Au+].c1ccc([PH+](c2ccccc2)c2ccccc2)cc1
3. Cc1ccc(NC(=O)CCC(=O)C2CC(=O)CC/C2=N\NC(=O)c2cc3ccccc3cc2O)cc1C (stereo not given)
4. CCCCc1ccc2[n+](c1)C(C(=O)OCC)=PC2 (stereo not given)

> 100 µM
3.26 µM
> 100 µM
> 100 µM

I have 6 molecules here; please give me TGI for each one.
1. O=c1oc2ccccc2cc1-c1nc2ccc([N+](=O)[O-])cc2o1
2. Cc1ccc(NCSc2ccc(Cl)cc2)cc1
3. COc1cc(C(c2cc3c(cc2O)OCO3)N2CCCC2)cc(OC)c1OC (stereo not given)
4. COc1ccc(N2C(=O)C3c4[nH]c5ccc(C)cc5c4C4CCC(C(C)C)CC4C3C2=O)cc1 (stereo not given)
5. c1ccc2c(c1)CCCc1cc3ccccc3nc1-2
6. COc1ccccc1C(=O)c1cnc(NC2CCN(S(C)(=O)=O)CC2)nc1N

["80.9 µM", "> 100 µM", "28.8 µM", "> 100 µM", "> 100 µM", "> 25 µM"]

Each of the following entries comes with a recorded value; kindly state TGI for each.
1. CN1C(=O)c2cc(Cl)nc3c(NC(=O)c4cccc(Cl)c4)c(Cl)c(NC(=O)c4cccc(Cl)c4)c1c23
2. CC(=O)N[C@@H](Cc1ccc(O)cn1)C(=O)NCc1ccc2c(c1)OCO2
3. CNc1ccc2nc(-c3ccc(OC(=O)N(C)C)cc3)cn2c1
4. O=C(C[C@@H]1NCCC[C@H]1O)Cn1cnc2cc(Br)c(Cl)cc2c1=O
5. COc1cc(S(=O)(=O)Nc2nc(-c3ccc(N4C(=O)/C(=C/c5ccccc5)N=C4c4ccccc4)cc3)cs2)ccc1Cl
6. Cc1cc(S(=O)(=O)Nc2n[nH]c(Nc3ccccc3)n2)c(S)cc1Cl

["3.09 µM", "> 100 µM", "37.3 µM", "1.21 µM", "> 100 µM", "> 10 µM"]
